# method: Miglustat toxicokinetics
# Assay type: in vivo, cynomolgus monkey
# run.parameters: cynomolgus monkey, plasma, po, 175 mg/kg, Day 85; 100 mg/kg ATB200 + 175 mg/kg miglustat; read-out: Vz/F
readout.label: Vd/F (L)
Write it as a number; the unit L goes unstated.

// field: Vd/F; key: CCCCN1C[C@H](O)[C@@H](O)[C@H](O)[C@H]1CO ; value = 39.1

###

# method: Miglustat toxicokinetics
# Format: in vivo, cynomolgus monkey
# run.parameters: cynomolgus monkey, plasma, po, 175 mg/kg, Day 85; 100 mg/kg ATB200 + 175 mg/kg miglustat; read-out: t1/2 (converted)
readout.label: half-life (h)
Answer format: numeric, h implied, no suffix.

Reported half-life for CCCCN1C[C@H](O)[C@@H](O)[C@H](O)[C@H]1CO was 7.86
